Assayed target: IRAK4 (Homo sapiens, UniProt Q9NWZ3)
Construct: Degradation of IRAK4 in OCI-LY10 was quantitatively measured using Meso Scale Discovery technology; endogenous in cells; host or cells: OCI-LY10
Sequence (Q9NWZ3 1-460): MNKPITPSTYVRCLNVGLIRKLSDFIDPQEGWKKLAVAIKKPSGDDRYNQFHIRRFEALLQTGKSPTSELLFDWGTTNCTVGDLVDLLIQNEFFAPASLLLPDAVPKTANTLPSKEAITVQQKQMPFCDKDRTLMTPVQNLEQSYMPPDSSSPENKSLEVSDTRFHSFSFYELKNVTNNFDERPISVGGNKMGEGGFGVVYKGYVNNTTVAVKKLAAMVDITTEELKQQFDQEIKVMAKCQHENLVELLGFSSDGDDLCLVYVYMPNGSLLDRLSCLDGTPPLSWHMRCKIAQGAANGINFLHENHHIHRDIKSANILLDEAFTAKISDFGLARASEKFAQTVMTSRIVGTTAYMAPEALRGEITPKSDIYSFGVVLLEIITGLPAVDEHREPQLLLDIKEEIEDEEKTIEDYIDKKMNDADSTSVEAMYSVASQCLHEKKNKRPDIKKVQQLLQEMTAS
Experimental details: IRAK4 MSD Degradation in OCI-LY10
Assay type: cell-based
Settings: OCI-LY10 cells, 4 hrs incubation, MSD; read-out: IRAK4 degradation in OCI-LY10 at 4 hrs: DC50
Measurement name: DC50

Molecule	Measured value
Cn1c(=O)n(C2CCC(=O)NC2=O)c2cccc(N3CC4(C3)N(C[C@H]3CC[C@H](n5cc6cc(NC(=O)c7cccc(C(F)(F)F)n7)c(C#N)cc6n5)CC3)CC4(F)F)c21 (stereo partly shown) [I-565]	> 200 nM
Cn1c(=O)n(C2CCC(=O)NC2=O)c2cccc(C#CCN3CCCN(C[C@H]4CC[C@H](n5cc(NC(=O)c6cnn7ccc(N8C[C@H]9C[C@@H]8CO9)nc67)c(C(F)F)n5)CC4)CC3)c21 (stereo partly shown) [I-5]	< 10 nM
CN(C[C@H]1CC[C@H](n2cc(NC(=O)c3cnn4ccc(N5CCO[C@H](C(F)(F)F)C5)nc34)c(C(F)F)n2)CC1)C1CCN(c2cccc3c2n(C)c(=O)n3C2CCC(=O)NC2=O)CC1(F)F (stereo partly shown) [I-538]	> 200 nM

Lookup: Enter reported DC50 observed with IRAK4 (Homo sapiens, UniProt Q9NWZ3) for Cn1c(=O)n(C2CCC(=O)NC2=O)c2cccc(C#CCOC3CCN([C@H]4CC[C@@H](n5cc(NC(=O)c6cnn7ccc(N8C[C@H]9C[C@@H]8CO9)nc67)c(C(F)F)n5)CC4)CC3)c21 (stereo partly shown) [I-420]
Found: > 200 nM

// provenance: patent US12091411B2
